As shown below, each of these compounds has a reported Ki value.
system: Rat brain delta opioid receptor (Rattus norvegicus)
Construct: from tissue; host or cells: rat brain
procedure.details: Rat brain delta opioid receptor binding
condition.set: rDOR Ki
Write the answer as a number in nM, unit excluded.

Example entries begin here.
compound	Ki, nM
CCNC(=O)c1ccc2c(c1)Oc1ccccc1C2=C1CCNCC1	73
CCN(CC)C(=O)c1ccc2c(c1)Oc1c(O)cccc1C2=C1CC2CCC(C1)N2	0.274
CCN(CC)C(=O)c1ccc2c(c1)Oc1ccccc1C2=C1CC2CCC(C1)N2 [Compound 24]	0.57
CCN(CC)C(=O)c1ccc2c(c1)Oc1ccc(C)cc1C2=C1CC2CCC(C1)N2	54.4
CC(C)NC(=O)c1ccc2c(c1)Oc1ccccc1C2=C1CC2CCC(C1)N2	1160

Task: Quick one: Ki for CCN(CC)C(=O)c1ccc2c(c1)Sc1ccccc1C2=C1CC2CCC(C1)N2CCCSC ?
Output: 10.2

Task: # repeat for CCNC(=O)c1ccc2c(c1)Oc1ccccc1C2=C1CC2CCC(C1)N2 (single isomer, unassigned)
Output: 66.5

Task: # repeat for CCN(CC)C(=O)c1ccc2c(c1)Oc1ccccc1C2=C1CCN(Cc2ccccn2)CC1
Output: 0.05

====

system: Rat brain delta opioid receptor (Rattus norvegicus, UniProt P33533)
Construct: from tissue; host or cells: rat brain
Sequence (P33533 whole entry): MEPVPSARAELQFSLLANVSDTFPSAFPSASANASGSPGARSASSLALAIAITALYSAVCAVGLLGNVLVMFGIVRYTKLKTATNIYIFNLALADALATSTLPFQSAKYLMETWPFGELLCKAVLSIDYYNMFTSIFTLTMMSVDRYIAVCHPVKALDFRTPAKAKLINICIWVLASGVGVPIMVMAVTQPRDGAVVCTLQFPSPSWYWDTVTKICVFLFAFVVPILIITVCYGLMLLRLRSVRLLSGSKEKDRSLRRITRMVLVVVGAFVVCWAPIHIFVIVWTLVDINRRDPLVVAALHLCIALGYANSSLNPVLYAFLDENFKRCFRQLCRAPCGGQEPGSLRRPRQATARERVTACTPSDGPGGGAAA
procedure.details: Rat brain delta opioid receptor binding
condition.set: rDOR Ki
pKi: −log10 of the molar value.
Quick rule for you: pKi at 8 or higher means label 1, lower means label 0.

# count of solved cases: 4
compound	answer.label
CCN(CC)C(=O)c1ccc2c(c1)OCc1ccccc1C2=C1CCN(CCc2ccccc2)CC1	label 0
CCN(CC)C(=O)c1ccc2c(c1)Oc1ccccc1C2=C1CCN(C(=N)N)CC1	label 0
CCN(CC)C(=O)c1ccc2c(c1)Sc1ccccc1C2=C1CC2CCC(C1)N2Cc1ccc2c(c1)OCO2	label 1
CCN(CC)C(=O)c1ccc2c(c1)Sc1ccccc1C2=C1CC2CCC(C1)N2 (single isomer, unassigned) [Compound 62]	label 1

Okay, now this compound:
Task: Is pKi at least 8? Consider CNC(=O)c1ccc2c(c1)Oc1ccccc1C2=C1CC2CCC(C1)N2
Output: label 0

====

As shown below, each of these molecules has a reported pKi value.
system: Rat brain delta opioid receptor (Rattus norvegicus, UniProt P33533)
Construct: from tissue; host or cells: rat brain
procedure.details: Rat brain delta opioid receptor binding
condition.set: rDOR Ki
Note on units: pKi is unitless, being -log10 of a concentration expressed in mol/L.

molecule	assay.result
CCN(CC)C(=O)c1ccc2c(c1)Sc1ccccc1C2=C1CC2CCC(C1)N2CCO [Compound 51]	8.31

Task: Quick one: pKi for CCN(CC)C(=O)c1ccc2c(c1)Oc1c(cccc1-c1cnc3ccccc3c1)C2=C1CC2CCC(C1)N2 [Compound 98] ?
Output: 7.61

Task: # repeat for CCN(CC)C(=O)c1ccc2c(c1)Sc1ccccc1C2=C1CC2CCC(C1)N2CC1CC1 [Compound 49]
Output: 7.60

Task: # repeat for CCN(CC)C(=O)c1ccc2c(c1)Oc1c(cccc1-c1ccoc1)C2=C1CC2CCC(C1)N2 [Compound 97]
Output: 8.75

====

system: Rat brain delta opioid receptor (Rattus norvegicus)
Construct: from tissue; host or cells: rat brain
procedure.details: Rat brain delta opioid receptor binding
condition.set: rDOR Ki
quantity.measured: Ki (nM)
Write the answer as a number in nM, unit excluded.

Example entries begin here.
query.smiles	system	unit.abbrev	Ki
CCN(CC)C(=O)c1ccc2c(c1)Oc1ccccc1C2=C1CCN(C=S)CC1	Rat brain delta opioid receptor (Rattus norvegicus)	nM	2.02
CCN(CC)C(=O)c1ccc2c(c1)Oc1ccccc1C2=C1CCN(Cc2ccoc2)CC1	Rat brain delta opioid receptor (Rattus norvegicus)	nM	0.07
CCN(CC)C(=O)c1ccc2c(c1)Oc1c(cccc1-c1ccccc1)C2=C1CC2CCC(C1)N2	Rat brain delta opioid receptor (Rattus norvegicus)	nM	25.4

Task: Quick one: Ki for CCN(CC)C(=O)c1ccc2c(c1)Oc1cc(O)ccc1C2=C1CC2CCC(C1)N2 ?
Output: 1.7

Task: # repeat for CCN(CC)C(=O)c1ccc2c(c1)Oc1c(cccc1-c1ccncc1)C2=C1CC2CCC(C1)N2
Output: 1.69

Task: # repeat for CCN(CC)C(=O)c1ccc2c(c1)Oc1ccccc1C2=C1CC2CCC(C1)N2CCSC
Output: 12

Task: # repeat for CCN(CC)C(=O)c1ccc2c(c1)Oc1c(F)cccc1C2=C1CC2CCC(C1)N2
Output: 68

====

system: Rat brain delta opioid receptor (Rattus norvegicus, UniProt P33533)
Construct: from tissue; host or cells: rat brain
procedure.details: Rat brain delta opioid receptor binding
condition.set: read-out: rDOR Ki
quantity.measured: pKi
Note on units: pKi is unitless, being -log10 of a concentration expressed in mol/L.

compound	pKi
CCNC(=O)c1ccc2c(c1)Oc1ccccc1C2=C1CC2CCC(C1)N2CCc1ccccc1 [Compound 27]	6.68

Task: Quick one: pKi for C=C(C)CN1CCC(=C2c3ccccc3COc3cc(C(=O)NCC)ccc32)CC1 [Compound 14] ?
Output: 6.36

====

system: human delta opioid receptor (Homo sapiens)
Construct: purchased Receptor Biology, Inc. (Baltimore, Md.); host or cells: CHO cells expressing the human delta receptor (membranes)
Sequence (P41143 whole entry): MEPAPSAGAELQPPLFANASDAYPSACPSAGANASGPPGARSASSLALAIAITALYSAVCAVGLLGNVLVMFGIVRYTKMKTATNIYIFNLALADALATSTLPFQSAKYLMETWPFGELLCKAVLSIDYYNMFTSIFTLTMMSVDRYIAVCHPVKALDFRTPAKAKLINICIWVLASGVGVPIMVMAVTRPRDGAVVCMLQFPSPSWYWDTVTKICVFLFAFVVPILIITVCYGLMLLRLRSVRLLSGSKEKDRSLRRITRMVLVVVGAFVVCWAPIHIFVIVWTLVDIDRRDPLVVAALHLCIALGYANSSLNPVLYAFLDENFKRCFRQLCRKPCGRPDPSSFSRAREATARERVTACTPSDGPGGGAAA
procedure.details: [35S]GTPγS binding assay in CHO-hδ cell membranes
Format: biochemical
condition.set: hDOR GTPγS EC50, human delta opioid receptor GTPγS functional assay
pEC50: −log10 of the molar value.
Quick rule for you: pEC50 at 7 or higher means Satisfied, lower means Not satisfied.

# count of solved cases: 5
compound	answer.label
CCN(CC)C(=O)c1ccc2c(c1)Oc1ccccc1C2=C1CCNCC1 [Compound 3]	Satisfied
CCN(CC)C(=O)c1ccc2c(c1)Sc1ccccc1C2=C1CC2CCC(C1)N2CC1CC1 [Compound 49]	Not satisfied
CCN(CC)C(=O)c1ccc2c(c1)Oc1ccccc1C2=C1CC2CCC(C1)N2Cc1ccccn1 [Compound 44]	Satisfied
CCN(CC)C(=O)c1ccc2c(c1)Sc1ccccc1C2=C1CC2CCC(C1)N2 [Compound 48]	Satisfied
CCN(CC)C(=O)c1ccc2c(c1)Oc1ccccc1C2=C1CC2CCC(C1)N2C [Compound 23]	Not satisfied

Task: Is pEC50 at least 7? Consider CCN(CC)C(=O)c1ccc2c(c1)OCc1ccccc1C2=C1CCNCC1 [Compound 2]
Output: Satisfied

Task: # repeat for CCN(CC)C(=O)c1ccc2c(c1)Sc1ccccc1C2=C1CC2CCC(C1)N2CCCSC [Compound 50]
Output: Not satisfied

====

system: Rat brain delta opioid receptor (Rattus norvegicus, UniProt P33533)
Construct: from tissue; host or cells: rat brain
procedure.details: Rat brain delta opioid receptor binding
condition.set: rDOR Ki
quantity.measured: Ki (µM)
Write the answer as a number in µM, unit excluded.

Example entries begin here.
compound	unit.abbrev	Ki
C=CCN1C2CCC1CC(=C1c3ccccc3Oc3cc(C(=O)N(CC)CC)ccc31)C2 [Compound 38]	µM	0.0318
CCCN(CCC)C(=O)c1ccc2c(c1)Oc1ccccc1C2=C1CC2CCC(C1)N2 [Compound 60]	µM	0.00462
CCN(CC)C(=O)c1ccc2c(c1)Oc1c(cccc1-c1ccsc1)C2=C1CC2CCC(C1)N2 [Compound 99]	µM	0.0193

Shift focus to the following entry.
Task: Quick one: Ki for CC(C)CN(C)C(=O)c1ccc2c(c1)Oc1ccccc1C2=C1CC2CCC(C1)N2 [Compound 59] ?
Output: 0.0106

====

As shown below, each of these compounds has a reported inhibition at 10 µM value.
system: human mu opioid receptor (Homo sapiens, UniProt P35372)
Construct: purchased Receptor Biology, Inc. (Baltimore, Md.); host or cells: CHO cells expressing the human mu receptor (membranes)
Sequence (P35372 whole entry): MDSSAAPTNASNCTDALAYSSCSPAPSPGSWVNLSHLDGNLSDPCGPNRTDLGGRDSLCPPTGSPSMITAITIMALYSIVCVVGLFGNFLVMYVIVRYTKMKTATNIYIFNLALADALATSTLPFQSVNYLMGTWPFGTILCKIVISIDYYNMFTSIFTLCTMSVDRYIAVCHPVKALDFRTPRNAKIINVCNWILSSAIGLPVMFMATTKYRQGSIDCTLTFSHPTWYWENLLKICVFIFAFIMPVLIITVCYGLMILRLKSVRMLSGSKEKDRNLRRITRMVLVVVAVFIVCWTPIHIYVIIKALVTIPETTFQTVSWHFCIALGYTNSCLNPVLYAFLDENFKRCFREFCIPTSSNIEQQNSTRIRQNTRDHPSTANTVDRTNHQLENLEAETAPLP
procedure.details: [35S]GTPγS binding assay in CHO-hμ cell membranes
Format: biochemical
condition.set: inhibition relative to 1 uM DAMGO, read-out: hMOR GTPγS % I @10 μM
Write the answer as a number in %, unit excluded.

Task: Quick one: inhibition at 10 µM for CCN(CC)C(=O)c1ccc2c(c1)Oc1ccccc1C2=C1CC2CCC(C1)N2Cc1ccoc1 ?
Output: 74

====

system: Rat brain delta opioid receptor (Rattus norvegicus, UniProt P33533)
Construct: from tissue; host or cells: rat brain
procedure.details: Rat brain delta opioid receptor binding
condition.set: read-out: rDOR Ki
quantity.measured: Ki

Example entries begin here.
molecule	quantity.measured	assay.result
C=CCN1CCC(=C2c3ccccc3COc3cc(C(=O)NCC)ccc32)CC1	Ki	368 nM
CCNC(=O)c1ccc2c(c1)OCc1ccccc1C2=C1CCN(CCc2ccccc2)CC1	Ki	23300 nM
CCN(CC)C(=O)c1ccc2c(c1)Oc1ccc(NC(C)=O)cc1C2=C1CCN(C)CC1	Ki	5200 nM
CCNC(=O)c1ccc2c(c1)OCc1ccccc1C2=C1CCN(Cc2ccc(O)c(OC)c2)CC1	Ki	2000 nM

Task: Quick one: Ki for CCNC(=O)c1ccc2c(c1)OCc1ccccc1C2=C1CCNCC1 ?
Output: 317 nM

Task: # repeat for CCN(CC)C(=O)c1ccc2c(c1)Oc1ccccc1C2C1CCNCC1 (stereo not shown)
Output: 14.7 nM
